log10 of Ki values, listed per item
target: human recombinant DOR (Homo sapiens, UniProt P41143); construct: expressed in transfected cells; host or cells: CHO cells (gift from Prof. Girolamo Calo', Ferrara University); assay: Opioid receptor radioligand binding assay, DOR
Sequence (P41143 whole entry): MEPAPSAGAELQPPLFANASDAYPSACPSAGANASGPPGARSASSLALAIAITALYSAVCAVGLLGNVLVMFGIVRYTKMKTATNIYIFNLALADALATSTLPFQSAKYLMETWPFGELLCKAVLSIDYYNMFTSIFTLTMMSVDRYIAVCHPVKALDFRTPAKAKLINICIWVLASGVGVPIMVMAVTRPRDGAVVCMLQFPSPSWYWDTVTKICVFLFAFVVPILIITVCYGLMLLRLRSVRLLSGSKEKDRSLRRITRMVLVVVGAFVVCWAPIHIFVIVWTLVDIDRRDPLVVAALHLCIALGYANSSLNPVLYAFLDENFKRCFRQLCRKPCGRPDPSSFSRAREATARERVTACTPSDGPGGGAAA
Numbered stars: 1 amine (or outer) side, 2 acyl side, 3 side chain; on linkers, the order of the positions; unused ones are H or OH. Square brackets hold non-standard residues; d marks the D form. Peptide text beside a SMILES is read from it. * marks the point of attachment. X3 = O=C(c1c(OCCN[*:1])c(-c2ccccc2)nc2ccccc12)[*:2]; X1 = O=C1[C@@H](N[*:1])Cc2ccccc2CN1CCC(=O)[*:2]; NH(1S-phenylpropyl) = CC[C@H](N*)c1ccccc1; Dmt = Cc1cc(O)cc(C)c1C[C@H](N)C(=O)O; 4Amb = NCc1ccc(C(=O)O)cc1; Ac5c = NC1(C(=O)O)CCCC1; X2 = C(CN*)CN1CCOCC1
Note: values are log10 of Ki expressed in nM.

>>> readout_number("Cc1cc(O)cc(C)c1C[C@H](N)C(=O)N[C@H](CCCNC(=N)N)C(=O)N[C@H]1Cc2ccccc2CN(CCC(=O)N[C@@H](CC(=O)O)C(=O)N[C@@H](Cc2ccc(O)cc2)C(=O)N[C@H](Cc2c[nH]c3ccccc23)C(=O)N[C@H](C(=O)N[C@H](Cc2c[nH]c3ccccc23)C(=O)N[C@H](Cc2c[nH]c3ccccc23)C(=O)N[C@@H](CCCCN)C(N)=O)C(C)C)C1=O [SBL-OPNK-5] (H-[Dmt][dR][X1]DY[dW]V[dW][dW]K-NH2)")
1.00
>>> readout_number("Cc1cc(O)cc(C)c1C[C@H](N)C(=O)N[C@H](CCCNC(=N)N)C(=O)N[C@@H](Cc1ccccc1)C(=O)N[C@@H](CCCCN)C(=O)N[C@@H](CC(=O)O)C(=O)N[C@@H](Cc1ccc(O)cc1)C(=O)N[C@H](Cc1c[nH]c2ccccc12)C(=O)N[C@H](C(=O)N[C@H](Cc1c[nH]c2ccccc12)C(=O)N[C@H](Cc1c[nH]c2ccccc12)C(=O)N[C@@H](CCCCN)C(N)=O)C(C)C [SBL-OPNK-4] (H-[Dmt][dR]FKDY[dW]V[dW][dW]K-NH2)")
3.10
>>> readout_number("Cc1cc(O)cc(C)c1C[C@H](N)C(=O)N[C@H](CCCNC(=N)N)C(=O)N[C@@H](Cc1ccccc1)C(=O)N[C@@H](CCCCN)C(=O)NCc1ccc(C(=O)NC2(C(=O)N[C@H](Cc3ccccc3)C(=O)NCCCN3CCOCC3)CCCC2)cc1 [SBL-OPNK-6] (H-[Dmt][dR]FK[4Amb][Ac5c][dF]-X2)")
4.35
>>> readout_number("Cc1cc(O)cc(C)c1C[C@H](N)C(=O)N[C@H](CCCNC(=N)N)C(=O)N[C@H]1Cc2ccccc2CN(CCC(N)=O)C1=O [KGOP01, H-Dmt-D-Arg-Aba-βAla-NH2, reference compound]")
0.69
>>> readout_number("CC[C@H](NC(=O)c1c(OCCNC(=O)CCN2Cc3ccccc3C[C@H](NC(=O)[C@@H](CCCNC(=N)N)NC(=O)[C@@H](N)Cc3c(C)cc(O)cc3C)C2=O)c(-c2ccccc2)nc2ccccc12)c1ccccc1")
0.82

Task: // fetch human recombinant DOR (Homo sapiens, UniProt P41143) log10 of Ki for CC[C@H](NC(=O)c1c(OCCNC(=O)[C@H](CCCCN)NC(=O)[C@H](Cc2ccccc2)NC(=O)[C@@H](CCCNC(=N)N)NC(=O)[C@@H](N)Cc2c(C)cc(O)cc2C)c(-c2ccccc2)nc2ccccc12)c1ccccc1 [SBL-OPNK-8] (H-[Dmt][dR]FK[X3]-{NH(1S-phenylpropyl)})
Output: 3.66

###

molecular target: human recombinant KOR (Homo sapiens); construct: expressed in transfected cells; host or cells: CHO cells (gift from Prof. Girolamo Calo', Ferrara University); assay: Calcium mobilization assay, CHO KOR cells with Gαqi5; assay type: cell-based; details: intrinsic activity: Emax of ligand / Emax of dynorphin A
Square brackets hold non-standard residues; d marks the D form. Peptide text beside a SMILES is read from it. * marks the point of attachment. Dmt = Cc1cc(O)cc(C)c1C[C@H](N)C(=O)O; 4Amb = NCc1ccc(C(=O)O)cc1; Ac5c = NC1(C(=O)O)CCCC1; X2 = C(CN*)CN1CCOCC1
Measurement Type: KOR α ± SEM

>>> result("Cc1cc(O)cc(C)c1C[C@H](N)C(=O)N[C@H](CCCNC(=N)N)C(=O)N[C@@H](Cc1ccccc1)C(=O)N[C@@H](CCCCN)C(=O)N[C@@H](CC(=O)O)C(=O)N[C@@H](Cc1ccc(O)cc1)C(=O)N[C@H](Cc1c[nH]c2ccccc12)C(=O)N[C@H](C(=O)N[C@H](Cc1c[nH]c2ccccc12)C(=O)N[C@H](Cc1c[nH]c2ccccc12)C(=O)N[C@@H](CCCCN)C(N)=O)C(C)C [SBL-OPNK-4] (H-[Dmt][dR]FKDY[dW]V[dW][dW]K-NH2)")
"crc incomplete"
>>> result("Cc1cc(O)cc(C)c1C[C@H](N)C(=O)N[C@H](CCCNC(=N)N)C(=O)N[C@@H](Cc1ccccc1)C(=O)N[C@@H](CCCCN)C(=O)NCc1ccc(C(=O)NC2(C(=O)N[C@H](Cc3ccccc3)C(=O)NCCCN3CCOCC3)CCCC2)cc1 [SBL-OPNK-6] (H-[Dmt][dR]FK[4Amb][Ac5c][dF]-X2)")
"crc incomplete"

###

molecular target: human recombinant KOR (Homo sapiens, UniProt P41145); construct: expressed in transfected cells; host or cells: CHO cells (gift from Prof. Girolamo Calo', Ferrara University); test: Calcium mobilization assay, CHO KOR cells with Gαqi5; type: cell-based; details: calcium mobilization, CHO KOR Gαqi5; maximum tested concentration 10 µM; crc = concentration-response curve
Sequence (P41145 whole entry): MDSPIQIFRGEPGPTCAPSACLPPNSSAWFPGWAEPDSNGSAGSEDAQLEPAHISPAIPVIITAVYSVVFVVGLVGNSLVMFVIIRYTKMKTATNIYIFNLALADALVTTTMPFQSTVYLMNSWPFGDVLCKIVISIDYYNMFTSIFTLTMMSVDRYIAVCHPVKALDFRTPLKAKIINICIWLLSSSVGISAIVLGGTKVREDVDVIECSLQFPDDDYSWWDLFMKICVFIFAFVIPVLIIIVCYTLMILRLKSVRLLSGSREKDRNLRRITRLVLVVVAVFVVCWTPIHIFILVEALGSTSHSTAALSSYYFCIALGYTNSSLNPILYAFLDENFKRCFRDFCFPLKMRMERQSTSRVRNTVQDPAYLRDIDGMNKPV
Numbered stars: 1 amine (or outer) side, 2 acyl side, 3 side chain; on linkers, the order of the positions; unused ones are H or OH. Square brackets hold non-standard residues; d marks the D form. Peptide text beside a SMILES is read from it. * marks the point of attachment. X3 = O=C(c1c(OCCN[*:1])c(-c2ccccc2)nc2ccccc12)[*:2]; NH(1S-phenylpropyl) = CC[C@H](N*)c1ccccc1; Dmt = Cc1cc(O)cc(C)c1C[C@H](N)C(=O)O; 4Amb = NCc1ccc(C(=O)O)cc1; Ac5c = NC1(C(=O)O)CCCC1; X2 = C(CN*)CN1CCOCC1
Measurement Type: KOR EC50 ± SEM (nM)

>>> result("Cc1cc(O)cc(C)c1C[C@H](N)C(=O)N[C@H](CCCNC(=N)N)C(=O)N[C@@H](Cc1ccccc1)C(=O)N[C@@H](CCCCN)C(=O)NCc1ccc(C(=O)NC2(C(=O)N[C@H](Cc3ccccc3)C(=O)NCCCN3CCOCC3)CCCC2)cc1 [SBL-OPNK-6] (H-[Dmt][dR]FK[4Amb][Ac5c][dF]-X2)")
"crc incomplete"
>>> result("Cc1cc(O)cc(C)c1C[C@H](N)C(=O)N[C@H](CCCNC(=N)N)C(=O)N[C@@H](Cc1ccccc1)C(=O)N[C@@H](CCCCN)C(=O)N[C@@H](CC(=O)O)C(=O)N[C@@H](Cc1ccc(O)cc1)C(=O)N[C@H](Cc1c[nH]c2ccccc12)C(=O)N[C@H](C(=O)N[C@H](Cc1c[nH]c2ccccc12)C(=O)N[C@H](Cc1c[nH]c2ccccc12)C(=O)N[C@@H](CCCCN)C(N)=O)C(C)C [SBL-OPNK-4] (H-[Dmt][dR]FKDY[dW]V[dW][dW]K-NH2)")
"crc incomplete"
>>> result("CC[C@H](NC(=O)c1c(OCCNC(=O)[C@H](CCCCN)NC(=O)[C@H](Cc2ccccc2)NC(=O)[C@@H](CCCNC(=N)N)NC(=O)[C@@H](N)Cc2c(C)cc(O)cc2C)c(-c2ccccc2)nc2ccccc12)c1ccccc1 [SBL-OPNK-8] (H-[Dmt][dR]FK[X3]-{NH(1S-phenylpropyl)})")
"crc incomplete"

###

target: human recombinant MOR (Homo sapiens); construct: expressed in transfected cells; host or cells: CHO cells (gift from Prof. Girolamo Calo', Ferrara University); assay: Opioid receptor radioligand binding assay, MOR
Measurement Type: Ki (nM)
Please give a number only; it is taken to be in nM.

Task: Requested field: Ki. Item: CC[C@H](NC(=O)c1c(OCCNC(=O)CCN2Cc3ccccc3C[C@H](NC(=O)[C@@H](CCCNC(=N)N)NC(=O)[C@@H](N)Cc3c(C)cc(O)cc3C)C2=O)c(-c2ccccc2)nc2ccccc12)c1ccccc1 [SBL-OPNK-9]
Output: 5.43

###

molecular target: human recombinant MOR (Homo sapiens, UniProt P35372); construct: expressed in transfected cells; host or cells: CHO cells (gift from Prof. Girolamo Calo', Ferrara University); assay: Opioid receptor radioligand binding assay, MOR
Sequence (P35372 whole entry): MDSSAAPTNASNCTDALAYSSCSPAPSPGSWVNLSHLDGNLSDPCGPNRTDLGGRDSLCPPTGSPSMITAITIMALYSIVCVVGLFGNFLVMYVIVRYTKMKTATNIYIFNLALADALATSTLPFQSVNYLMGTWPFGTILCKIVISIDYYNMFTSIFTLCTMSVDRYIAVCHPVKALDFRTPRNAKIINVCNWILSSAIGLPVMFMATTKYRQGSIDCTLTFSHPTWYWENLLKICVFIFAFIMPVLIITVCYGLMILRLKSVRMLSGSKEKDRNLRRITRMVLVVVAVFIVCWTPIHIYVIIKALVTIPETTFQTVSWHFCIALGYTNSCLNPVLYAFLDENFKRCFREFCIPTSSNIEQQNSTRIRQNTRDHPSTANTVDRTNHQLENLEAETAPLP
Numbered stars: 1 amine (or outer) side, 2 acyl side, 3 side chain; on linkers, the order of the positions; unused ones are H or OH. Square brackets hold non-standard residues; d marks the D form. Peptide text beside a SMILES is read from it. * marks the point of attachment. X3 = O=C(c1c(OCCN[*:1])c(-c2ccccc2)nc2ccccc12)[*:2]; X1 = O=C1[C@@H](N[*:1])Cc2ccccc2CN1CCC(=O)[*:2]; NH(1S-phenylpropyl) = CC[C@H](N*)c1ccccc1; Dmt = Cc1cc(O)cc(C)c1C[C@H](N)C(=O)O; 4Amb = NCc1ccc(C(=O)O)cc1; Ac5c = NC1(C(=O)O)CCCC1; X2 = C(CN*)CN1CCOCC1
Ki values, listed per item
Please give a number only; it is taken to be in nM.

Recorded Ki, per entry:
>>> readout_number("Cc1cc(O)cc(C)c1C[C@H](N)C(=O)N[C@H](CCCNC(=N)N)C(=O)N[C@@H](Cc1ccccc1)C(=O)N[C@@H](CCCCN)C(=O)NCc1ccc(C(=O)NC2(C(=O)N[C@H](Cc3ccccc3)C(=O)NCCCN3CCOCC3)CCCC2)cc1 [SBL-OPNK-6] (H-[Dmt][dR]FK[4Amb][Ac5c][dF]-X2)")
74.9
>>> readout_number("Cc1cc(O)cc(C)c1C[C@H](N)C(=O)N[C@H](CCCNC(=N)N)C(=O)N[C@@H](Cc1ccccc1)C(=O)N[C@@H](CCCCN)C(=O)N[C@@H](CC(=O)O)C(=O)N[C@@H](Cc1ccc(O)cc1)C(=O)N[C@H](Cc1c[nH]c2ccccc12)C(=O)N[C@H](C(=O)N[C@H](Cc1c[nH]c2ccccc12)C(=O)N[C@H](Cc1c[nH]c2ccccc12)C(=O)N[C@@H](CCCCN)C(N)=O)C(C)C [SBL-OPNK-4] (H-[Dmt][dR]FKDY[dW]V[dW][dW]K-NH2)")
1.02
>>> readout_number("Cc1cc(O)cc(C)c1C[C@H](N)C(=O)N[C@H](CCCNC(=N)N)C(=O)N[C@H]1Cc2ccccc2CN(CCC(=O)N[C@@H](CC(=O)O)C(=O)N[C@@H](Cc2ccc(O)cc2)C(=O)N[C@H](Cc2c[nH]c3ccccc23)C(=O)N[C@H](C(=O)N[C@H](Cc2c[nH]c3ccccc23)C(=O)N[C@H](Cc2c[nH]c3ccccc23)C(=O)N[C@@H](CCCCN)C(N)=O)C(C)C)C1=O [SBL-OPNK-5] (H-[Dmt][dR][X1]DY[dW]V[dW][dW]K-NH2)")
2.11

Now look at this one.
Task: Requested field: Ki. Item: CC[C@H](NC(=O)c1c(OCCNC(=O)[C@H](CCCCN)NC(=O)[C@H](Cc2ccccc2)NC(=O)[C@@H](CCCNC(=N)N)NC(=O)[C@@H](N)Cc2c(C)cc(O)cc2C)c(-c2ccccc2)nc2ccccc12)c1ccccc1 [SBL-OPNK-8] (H-[Dmt][dR]FK[X3]-{NH(1S-phenylpropyl)})
Output: 120
